system: dsDNA; assay: Binding affinity to double stranded DNA ssab (unknown origin) assessed as change in fluorescence intensity at 1 uM incubated for 0.5 hrs in presence of different concentrations of DNA by fluorescence spectra analysis; type: nucleic-acid assay
Calls of active or inactive are those of the source. The calls are words filed in the database; no cut-off is given here.
Bench note: report the call from y for active, n for inactive

Q. Recorded test outcome, item c1c2c(cc3c1OCO3)-c1cc3ccc4c(c3c[n+]1CC2)OCO4 [COPTISINE]
A. n

Q. Hello, I am checking results. What call was entered for COc1ccc2c(c[n+](C)c3c4cc5c(cc4ccc23)OCO5)c1OC [CHELERYTHRINE] ?
A. y

Q. Recorded test outcome, item COc1ccc2cc3[n+](cc2c1OC)CCc1cc2c(cc1-3)OCO2 [BERBERINE]
A. n

Q. Query: recorded result category for C[n+]1cc2c3c(ccc2c2ccc4cc5c(cc4c21)OCO5)OCO3 [SANGUINARIUM] in this test
A. y
